- Target or test system: NaV1.5 (Homo sapiens)
- Sequence (Q14524 whole entry): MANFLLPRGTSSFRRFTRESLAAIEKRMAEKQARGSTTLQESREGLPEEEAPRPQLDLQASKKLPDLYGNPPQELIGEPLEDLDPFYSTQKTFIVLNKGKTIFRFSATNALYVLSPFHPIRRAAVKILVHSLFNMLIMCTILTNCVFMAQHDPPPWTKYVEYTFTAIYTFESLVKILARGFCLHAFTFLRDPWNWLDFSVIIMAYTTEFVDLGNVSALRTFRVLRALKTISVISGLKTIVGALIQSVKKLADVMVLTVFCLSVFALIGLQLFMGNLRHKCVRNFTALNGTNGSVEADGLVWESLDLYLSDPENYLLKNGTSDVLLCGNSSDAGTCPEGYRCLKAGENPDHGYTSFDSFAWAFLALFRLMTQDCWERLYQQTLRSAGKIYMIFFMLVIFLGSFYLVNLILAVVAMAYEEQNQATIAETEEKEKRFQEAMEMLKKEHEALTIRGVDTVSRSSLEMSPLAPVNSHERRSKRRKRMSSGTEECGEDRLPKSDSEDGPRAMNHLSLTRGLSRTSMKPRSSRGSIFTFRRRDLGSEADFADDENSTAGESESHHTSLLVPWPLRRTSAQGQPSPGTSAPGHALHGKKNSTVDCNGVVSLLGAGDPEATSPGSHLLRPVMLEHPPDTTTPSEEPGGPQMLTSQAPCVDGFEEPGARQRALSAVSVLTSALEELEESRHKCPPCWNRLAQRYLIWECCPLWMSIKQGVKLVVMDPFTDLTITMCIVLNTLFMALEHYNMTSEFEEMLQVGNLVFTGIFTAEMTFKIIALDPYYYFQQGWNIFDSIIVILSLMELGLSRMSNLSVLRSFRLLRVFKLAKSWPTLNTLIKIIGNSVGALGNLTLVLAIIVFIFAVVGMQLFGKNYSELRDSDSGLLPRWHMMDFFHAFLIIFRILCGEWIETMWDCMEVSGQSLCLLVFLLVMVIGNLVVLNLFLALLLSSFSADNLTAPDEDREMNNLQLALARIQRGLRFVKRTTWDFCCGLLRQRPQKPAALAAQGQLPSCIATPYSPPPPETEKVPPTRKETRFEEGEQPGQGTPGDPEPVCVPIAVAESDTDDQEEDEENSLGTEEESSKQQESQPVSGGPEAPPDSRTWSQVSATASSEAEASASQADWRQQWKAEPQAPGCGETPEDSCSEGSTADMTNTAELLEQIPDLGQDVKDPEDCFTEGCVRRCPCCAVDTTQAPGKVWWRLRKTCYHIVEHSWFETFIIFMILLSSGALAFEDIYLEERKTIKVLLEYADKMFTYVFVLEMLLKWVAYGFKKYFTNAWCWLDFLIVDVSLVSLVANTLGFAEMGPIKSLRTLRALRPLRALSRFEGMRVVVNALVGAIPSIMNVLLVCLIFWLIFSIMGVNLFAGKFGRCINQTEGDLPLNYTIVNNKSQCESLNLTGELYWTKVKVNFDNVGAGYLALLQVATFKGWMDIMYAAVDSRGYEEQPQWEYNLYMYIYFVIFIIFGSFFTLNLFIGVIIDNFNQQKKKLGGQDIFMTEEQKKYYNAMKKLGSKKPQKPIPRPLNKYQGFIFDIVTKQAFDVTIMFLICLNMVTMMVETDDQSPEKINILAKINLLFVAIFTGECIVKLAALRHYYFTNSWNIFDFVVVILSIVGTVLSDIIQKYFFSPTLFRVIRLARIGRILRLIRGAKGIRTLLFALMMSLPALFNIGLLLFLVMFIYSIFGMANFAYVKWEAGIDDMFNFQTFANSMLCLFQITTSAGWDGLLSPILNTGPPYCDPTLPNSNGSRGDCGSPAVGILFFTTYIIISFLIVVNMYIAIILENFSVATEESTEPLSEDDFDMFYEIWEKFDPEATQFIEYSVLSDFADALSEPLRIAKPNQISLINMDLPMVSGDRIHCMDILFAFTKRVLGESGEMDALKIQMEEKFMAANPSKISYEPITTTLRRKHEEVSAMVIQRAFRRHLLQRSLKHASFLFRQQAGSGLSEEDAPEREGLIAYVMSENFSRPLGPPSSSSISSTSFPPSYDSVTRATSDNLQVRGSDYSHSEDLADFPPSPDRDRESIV
- Experiment description: Cell membrane chromatography
- Format: binding
- Test parameters: capacity factor k′; reflects potential cardiac toxicity; k′ < 0 labeled as 0
Quantity name: k′ NaV1.5
Simply state the number, no unit and no words.

In [3]: df
Out[3]:
                                   molecule  target_or_test_system  data_value
0  COCCN(CCOC)C(C)C(=O)Nc1c(C)csc1C(=O)OC (stereo not shown) [AT-23]  NaV1.5 (Homo sapiens)        43.6

response.value for COC(=O)c1scc(C)c1NC(=O)C(C)N1CCN(C)C(C)C1 (stereo not shown) [AT-2] (field: k′ NaV1.5) = 92
